The measurements presented in this section are drawn from patent US20110053916A1.

biological target: PknB (Mycobacterium tuberculosis, UniProt P9WI81); construct: made in house; experiment: biochemical; parameters: species or system M. tuberculosis; conditions: 3 nM PknB, 6 uM GarA, 3 μM ATP, 30 min; competitive tight-binding fit; several symbols in a cell = repeat determinations; read-out: Ki Values
Sequence (P9WI81 whole entry): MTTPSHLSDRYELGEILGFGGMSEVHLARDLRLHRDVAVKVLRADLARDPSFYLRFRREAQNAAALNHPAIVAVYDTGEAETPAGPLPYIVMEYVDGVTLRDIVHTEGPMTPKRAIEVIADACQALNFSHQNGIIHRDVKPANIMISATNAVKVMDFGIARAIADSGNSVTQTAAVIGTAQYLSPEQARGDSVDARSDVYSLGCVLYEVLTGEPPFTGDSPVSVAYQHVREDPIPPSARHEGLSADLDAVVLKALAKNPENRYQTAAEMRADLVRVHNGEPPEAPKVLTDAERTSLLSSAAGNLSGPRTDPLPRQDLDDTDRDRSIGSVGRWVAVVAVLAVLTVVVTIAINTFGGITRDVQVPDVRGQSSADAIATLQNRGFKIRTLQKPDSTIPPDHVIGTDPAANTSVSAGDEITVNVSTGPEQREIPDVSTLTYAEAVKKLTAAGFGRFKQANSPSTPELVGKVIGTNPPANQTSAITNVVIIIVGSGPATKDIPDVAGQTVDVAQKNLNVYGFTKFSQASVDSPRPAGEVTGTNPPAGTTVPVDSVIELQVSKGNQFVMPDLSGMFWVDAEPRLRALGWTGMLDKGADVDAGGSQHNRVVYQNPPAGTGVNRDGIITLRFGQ
pKi: −log10 of the molar value.
Listed here are compounds together with their documented pKi.

{"COMPOUND": "C#Cc1cnc(N2CCCNCC2)nc1Nc1cc(C2CC2)n[nH]1 [Compound 174]", "pKi": "5.40 to 5.70"}
{"COMPOUND": "CC(=O)NCCNS(=O)(=O)c1ccc(-c2ncc(Br)c(Nc3cc(C4CC4)[nH]n3)n2)s1 [Compound 166]", "pKi": "7.30 to 8.00"}
{"COMPOUND": "CC(C)(C)NS(=O)(=O)c1ccc(-c2nc(CO)cc(Nc3cc(C4CC4)[nH]n3)n2)s1 [Compound 286]", "pKi": "7.30 to 8.00"}
{"COMPOUND": "CN(C)CCNS(=O)(=O)c1ccc(-c2ncc(Cl)c(Nc3cc(C4CC4)[nH]n3)n2)s1 [Compound 79]", "pKi": "7.30 to 8.00"}
{"COMPOUND": "CC1CC1c1cc(Nc2nc(-c3ccc(S(=O)(=O)NC(C)(C)C)s3)ncc2Cl)n[nH]1 (centres unmarked) [Compound 321]", "pKi": "6.30 to 7.00"}
{"COMPOUND": "NS(=O)(=O)c1ccc(-c2ncc(Cl)c(Nc3cc(C4CCN(C(=O)OCc5ccccc5)C4)n[nH]3)n2)s1 (centres unmarked) [Compound 262]", "pKi": "5.70 to 6.00"}

Briefly, pKi measured for Nc1cccc(Nc2nccc(Nc3cc(C4CC4)n[nH]3)n2)c1 [Compound 100] : 6.30 to 7.00

Briefly, pKi measured for Clc1cnc(Nc2ccc3[nH]ncc3c2)nc1Nc1cc(C2CC2)[nH]n1 [Compound 62] : < 5.40

###

Listed here are compounds together with their documented pKi.
biological target: PknB (Mycobacterium tuberculosis, UniProt P9WI81); construct: made in house; experiment: biochemical; parameters: species or system M. tuberculosis; conditions: 3 nM PknB, 6 uM GarA, 3 μM ATP, 30 min; competitive tight-binding fit; several symbols in a cell = repeat determinations; read-out: Ki Values
pKi: −log10 of the molar value.

Example compounds with recorded pKi:
{"COMPOUND": "O=C(O)C(O)c1ccc(-c2ncc(Cl)c(Nc3cc(C4CC4)[nH]n3)n2)s1 (stereo not shown)", "OBSERVED": "6.30 to 7.00"}
{"COMPOUND": "CC(=O)NCCNS(=O)(=O)c1ccc(-c2ncc(Cl)c(Nc3cc(C4CC4)[nH]n3)n2)s1", "OBSERVED": "7.30 to 8.00"}
{"COMPOUND": "N#CCc1ccc(-c2ncc(N)c(Nc3cc(C4CC4)[nH]n3)n2)cc1", "OBSERVED": "7.30 to 8.00"}

# next compound below
Briefly, pKi measured for NS(=O)(=O)C/C=C/c1nccc(Nc2cc(C3CC3)[nH]n2)n1 : 5.70 to 6.00

###

Listed here are compounds together with their documented Ki.
target: PknB (Mycobacterium tuberculosis); construct: made in house; test: biochemical; set-up: species or system M. tuberculosis; conditions: 3 nM PknB, 6 uM GarA, 3 μM ATP, 30 min; competitive tight-binding fit; several symbols in a cell = repeat determinations; read-out: Ki Values

Briefly, Ki measured for CCCc1cnc(N2CCN(C)CC2)nc1Nc1cc(C2CC2)[nH]n1 : > 4000 nM

Briefly, Ki measured for C=Cc1cnc(-c2ccc(S(N)(=O)=O)s2)nc1Nc1cc(C2CC2)[nH]n1 : 1 to 10 nM

Briefly, Ki measured for CC(C)(C)NS(=O)(=O)c1ccc(-c2ncc(/C=C/CO)c(Nc3cc(C4CC4)[nH]n3)n2)s1 : 50 to 100 nM

Briefly, Ki measured for CN1CCN(c2cc(Nc3cc(C4CC4)[nH]n3)nc(-c3ccc(S(N)(=O)=O)s3)n2)CC1 : 100 to 500 nM

Briefly, Ki measured for Nc1cc(Nc2cc(C3CC3)n[nH]2)nc(-c2ccc(S(N)(=O)=O)s2)n1 : 2000 to 4000 nM

Briefly, Ki measured for NS(=O)(=O)c1ccc(-c2cccc(Nc3cc(C4CC4)[nH]n3)n2)s1 : 1 to 10 nM

Briefly, Ki measured for C#Cc1cnc(N2CCCCC2C(=O)OC)nc1Nc1cc(C2CC2)[nH]n1 (centres unmarked) : > 4000 nM

Briefly, Ki measured for N#CCc1ccc(Nc2nccc(Nc3cc(C4CC4)[nH]n3)n2)cc1 : 10 to 50 nM

Briefly, Ki measured for NS(=O)(=O)c1ccc(-c2ncc(F)c(Nc3cc(C4CC4)[nH]n3)n2)s1 : 1 to 10 nM

Briefly, Ki measured for COCc1cnc(N2CCN(C)CC2)nc1Nc1cc(C2CC2)[nH]n1 : > 4000 nM

Briefly, Ki measured for CC(O)c1ccc(-c2ncc(F)c(Nc3cc(C4CC4)[nH]n3)n2)s1 (stereo in doubt) [Compound 144] : 10 to 50 nM

Briefly, Ki measured for COCCNS(=O)(=O)c1ccc(Nc2nccc(Nc3cc(C4CC4)n[nH]3)n2)cc1 : 10 to 50 nM

Briefly, Ki measured for CC(=O)c1cccc(-c2nccc(Nc3cc(C4CC4)[nH]n3)n2)c1 : 10 to 50 nM

Briefly, Ki measured for CCOC(=O)C(=O)c1ccc(-c2ncc(Cl)c(Nc3cc(C4CC4)[nH]n3)n2)s1 : 50 to 100 nM

Briefly, Ki measured for NS(=O)(=O)c1ccc(-c2nc(Nc3cc(C4CC4)n[nH]3)cc(N3CCOCC3)n2)s1 : 500 to 1000 nM

Briefly, Ki measured for Nc1ccc(-c2ccc(S(N)(=O)=O)s2)nc1Nc1cc(C2CC2)n[nH]1 : 1 to 10 nM

Briefly, Ki measured for C#Cc1cnc(-c2ccc(S(=O)(=O)CCCNC(C)=O)s2)nc1Nc1cc(C2CC2)[nH]n1 : 10 to 50 nM

###

biological target: PknB (Mycobacterium tuberculosis); construct: made in house; assay: biochemical; parameters: species or system M. tuberculosis; details: 3 nM PknB, 6 uM GarA, 3 μM ATP, 30 min; competitive tight-binding fit; several symbols in a cell = repeat determinations
MEASURED_QUANTITY: Ki Values

Example compounds with recorded Ki Values:
{"COMPOUND": "C#Cc1cnc(-c2ccc(C(C)=O)s2)nc1Nc1cc(C2CC2)[nH]n1", "OBSERVED": "A**, A*"}
{"COMPOUND": "CC(=O)NS(=O)(=O)c1ccc(-c2ncc(Cl)c(Nc3cc(C4CC4)[nH]n3)n2)s1", "OBSERVED": "A, B**"}
{"COMPOUND": "O=S(=O)(NCCO)c1cccc(-c2ncc(Cl)c(Nc3cc(C4CC4)[nH]n3)n2)c1", "OBSERVED": "A*, A"}
{"COMPOUND": "C#Cc1cnc(-c2ccc([C@@H](O)CC)s2)nc1Nc1cc(C2CC2)[nH]n1 (stereo in doubt)", "OBSERVED": "A**, A*"}
{"COMPOUND": "O=S(=O)(NC1CCOCC1)c1ccc(-c2ncc(Cl)c(Nc3cc(C4CC4)[nH]n3)n2)s1", "OBSERVED": "A, B**"}

Briefly, Ki Values measured for CS(=O)(=O)c1ccc(-c2nccc(Nc3cc(C4CC4)[nH]n3)n2)cc1 : A*, A

Briefly, Ki Values measured for CC(=O)c1ccc(-c2ncc(Br)c(Nc3cc(C4CC4)[nH]n3)n2)s1 : A**, A*

Briefly, Ki Values measured for CCc1cnc(N2CCC(N3CCCCC3)CC2)nc1Nc1cc(C2CC2)[nH]n1 : C, D

###

target: PknB (Mycobacterium tuberculosis); construct: made in house; assay: biochemical; parameters: species or system M. tuberculosis; settings: 3 nM PknB, 6 uM GarA, 3 μM ATP, 30 min; competitive tight-binding fit; several symbols in a cell = repeat determinations; read-out: Ki Values
pKi: −log10 of the molar value.
MEASURED_QUANTITY: pKi

Example compounds with recorded pKi:
{"COMPOUND_STRUCTURE": "C#Cc1cnc(-c2ccc(C(=O)C(=O)OCC)s2)nc1Nc1cc(C2CC2)[nH]n1", "TARGET_ENTITY": "PknB (Mycobacterium tuberculosis)", "OBSERVED": "7.30 to 8.00"}
{"COMPOUND_STRUCTURE": "CC(C)(C)NS(=O)(=O)c1ccc(-c2ncc(C#CCO)c(Nc3cc(C4CC4)[nH]n3)n2)s1", "TARGET_ENTITY": "PknB (Mycobacterium tuberculosis)", "OBSERVED": "5.70 to 6.00"}
{"COMPOUND_STRUCTURE": "CC(=O)c1ccc(-c2nccc(Nc3cc(C4CC4)[nH]n3)n2)cc1", "TARGET_ENTITY": "PknB (Mycobacterium tuberculosis)", "OBSERVED": "7.30 to 8.00"}
{"COMPOUND_STRUCTURE": "NS(=O)(=O)c1ccccc1Nc1nccc(Nc2cc(C3CC3)[nH]n2)n1", "TARGET_ENTITY": "PknB (Mycobacterium tuberculosis)", "OBSERVED": "6.30 to 7.00"}

Briefly, pKi measured for O=[N+]([O-])c1ccc(-c2ncc(Cl)c(Nc3cc(C4CC4)[nH]n3)n2)o1 : 8.00 to 9.00

Briefly, pKi measured for COCc1cnc(N2CCC(N3CCCCC3)CC2)nc1Nc1cc(C2CC2)[nH]n1 : 5.70 to 6.00

Briefly, pKi measured for C=C(Cl)c1cnc(-c2ccccc2)nc1Nc1cc(C2CC2)[nH]n1 : 6.00 to 6.30

Briefly, pKi measured for C#Cc1cnc(N2CCCN(C(C)=O)CC2)nc1Nc1cc(C2CC2)n[nH]1 : 6.30 to 7.00
